# method-summary: TLR3 IRF3 reporter activation blockers – cell-based, poly I:C stimulus, luciferase, 10K MLSCN set, primary screen (AID 602277)
# condition-description: HEK293-TLR3 RL24 IRF3 luciferase reporter, at 10 µM
Activity calls are given as the source filed them.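 How the source made its calls: active means inhibition of the reporter signal at or above 50%; inactive means inhibition below 50%.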
Give one outcome, nothing more. List: Y = active, N = inactive

INSERT INTO measurements (compound, assigned_class) VALUES
  ('NS(=O)(=O)c1ccc(CCNC(=O)CCC2COc3ccccc3O2)cc1 (stereo unspecified)', 'N');

Request: What did the test return for COc1ccc(OC)c(NC(=O)CCN2CCN(c3ccccc3F)CC2)c1 ?
Result: N

Request: What did the test return for O=C1NC(c2ccco2)Nc2ccccc21 (stereo unspecified) ?
Result: Y

Request: What did the test return for Cc1ccc(NC(=O)COc2nc(C)cs2)cc1 ?
Result: N

Request: What did the test return for Fc1cccc(-c2cc3nc4c(c(N5CCN(c6cnccn6)CC5)n3n2)CCCC4)c1 ?
Result: N

Request: What did the test return for Cc1ccc(S(=O)(=O)N2CCN(C(=O)CSc3nc4ccccc4c(=O)[nH]3)CC2)c(C)c1 ?
Result: N

* * *

# target-desc: Alpha-2C adrenergic receptor (Homo sapiens)
# method-summary: compounds altering alpha2C-coupled GIRK flux – cell-based, HEK293 alpha2C/GIRK1/2, thallium flux, primary screen (AID 624);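 further: slope of fluorescence ratio to pre-addition baseline per second over 15 to 24 s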
# condition-description: thallium flux BTC fluorescence, at 10 µM, actives lie on both sides
measure-name: slope
One number for each entry.

Some solved entries appear below for comparison.
INSERT INTO assay_data (compound, experimental_result) VALUES
  ('Nc1nc(N2CCN(C/C=C/c3ccccc3)CC2)nc2ccccc12', 0.00297),
  ('O=C1OCCC1Sc1ncnc2sccc12 (stereo unspecified)', 0.00502),
  ('O=C1c2ccccc2NC(c2cccc(F)c2)N1Cc1ccco1 (stereo unspecified)', 0.00344);

I need slope for every entry listed below, if you could help.
1. COc1cccc(NC(=O)C2CCN(c3ncccn3)CC2)c1
2. Cc1onc(-c2ccccc2Cl)c1C(=O)Nc1cnn(Cc2ccccc2)c1
3. CC(C)Cn1c2c(c(O)c(C(=O)Nc3ncccc3O)c1=O)CCCC2
4. CCOc1ccc2c(O)csc2c1
5. O=C(Nc1cccc(NC(=O)c2ccco2)c1)c1ccc2c(c1)OCO2

Result:
0.00449
0.00545
0.00432
0.0033
0.00264

I need slope for every entry listed below, if you could help.
1. COc1cc2c(cc1NC(=O)CSc1nnc(Cc3cccs3)n1C)oc1ccccc12
2. Cc1cc(=O)c2n(Cc3ccccc3Cl)nc[n+]2[nH]1
3. CCOc1ccccc1N(C(=O)c1ccco1)C(C(=O)NC1CCCC1)c1cccnc1 (stereo unspecified)

Result:
1: 0.00401; 2: 0.00447; 3: 0.00563

* * *

# target-desc: Voltage-gated potassium channel subunit beta-2 (Rattus norvegicus) (UniProt P62483)
# Sequence (P62483 whole entry, looked up): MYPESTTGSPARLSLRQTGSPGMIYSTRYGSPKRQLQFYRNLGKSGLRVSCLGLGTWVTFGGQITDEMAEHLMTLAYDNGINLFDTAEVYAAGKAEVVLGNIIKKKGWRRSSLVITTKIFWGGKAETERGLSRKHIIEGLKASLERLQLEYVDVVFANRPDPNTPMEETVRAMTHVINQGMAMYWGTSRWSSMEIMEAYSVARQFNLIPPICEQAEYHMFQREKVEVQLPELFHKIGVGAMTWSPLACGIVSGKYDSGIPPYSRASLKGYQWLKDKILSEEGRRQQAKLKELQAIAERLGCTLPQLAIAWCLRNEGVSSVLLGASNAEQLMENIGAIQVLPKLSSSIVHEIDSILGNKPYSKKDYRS
# method-summary: enhancers of rat Kvbeta2 NADPH turnover – biochemical, NADPH fluorescence, primary screen (AID 623);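 further: fluorescence intensity change per second fitted from 20 to 320 s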
# condition-description: Recombinant KvBeta, NADPH fluorescence decrease slope, 10 min; at 10 µM; stronger effect = lower value
So I've got a bunch of compounds here, and I need their NADPH fluorescence slope values.
Answers are plain numbers.

Some solved entries appear below for comparison.
INSERT INTO measurements (compound, measure_name, experimental_result) VALUES
  ('COC(=O)c1[nH]c2cc(OC)ccc2c1NC(=O)CCN1CCCCC1', 'NADPH fluorescence slope', '-5.4e-05'),
  ('COc1ccc(CCNc2oc(-c3ccco3)nc2C#N)cc1', 'NADPH fluorescence slope', '-3.5e-05'),
  ('COc1ccc(S(=O)(=O)Nc2ccccc2SC)cc1C', 'NADPH fluorescence slope', '1.3e-05'),
  ('O=C(Nc1ccccc1)c1cccc(N2CCCC2=O)c1', 'NADPH fluorescence slope', '3.8e-05'),
  ('COc1ccc2c(=O)c3c(=O)n(Cc4ccco4)c(-c4cc(OC)c(OC)c(OC)c4)nc3oc2c1', 'NADPH fluorescence slope', '5.6e-06');

I need NADPH fluorescence slope for every entry listed below, if you could help.
1. CCCC1CCC(C(=O)Nn2c(C)nc3ccccc3c2=O)CC1 (configuration not stated)
2. CCOc1ccccc1-n1c(SCC(=O)NCc2ccco2)nnc1-c1ccncc1
3. CC(=O)c1c(C)nn(CC(O)COc2ccc3c(c2)CCC3)c1C (configuration not stated)
4. CCOc1nc(-c2ccccc2)ccc1-c1noc(-c2cccnc2)n1

Result:
["-2.4e-05", "3.6e-05", "4e-05", -0.000244]

I need NADPH fluorescence slope for every entry listed below, if you could help.
1. Cc1cc(C(=O)O)ccc1-n1c(C)ccc1C
2. O=c1c2cc3ccccc3n2cnn1Cc1ccccc1F
3. Cc1cccc(C)c1NC(=O)COC(=O)c1nonc1N

Result:
1: -3.5e-05; 2: 3.1e-05; 3: -6.4e-05

* * *

# method-summary: TLR3 IRF3 reporter activation blockers – cell-based, poly I:C stimulus, luciferase, 10K MLSCN set, primary screen (AID 602277)
# condition-description: HEK293-TLR3 RL24 IRF3 luciferase reporter, at 10 µM
The source made the active and inactive calls.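 Rule for the calls: active = inhibition of the reporter signal at or above 50%; inactive = inhibition below 50%.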
Give one outcome, nothing more. List: active, inactive

Examples from the recorded data:
INSERT INTO assay_data (molecule, assigned_class) VALUES
  ('CCC(C(=O)NC(C)CCc1ccco1)n1nc(C)n2c(cc3occc32)c1=O (stereo unspecified)', 'inactive'),
  ('CCCC(=O)Nc1ccc(C(=O)O)cc1NC(=O)CCC', 'inactive');

Request: What did the test return for COc1ccc(OC)c(S(=O)(=O)Nc2ccc(O)c3ccccc23)c1 ?
Result: active

Request: What did the test return for COc1ccccc1OCc1ccc(C(=O)NC(C)(C)C)o1 ?
Result: inactive

Request: What did the test return for Nc1c(C(=O)NCCc2ccccc2)nnn1Cc1ccccc1 ?
Result: inactive

Request: What did the test return for Cc1ccc(Cn2ccc(NC(=O)c3noc4c3CCCC4)n2)cc1 ?
Result: inactive

Request: What did the test return for O=C(NC1CCCCC1)C(c1ccc(Cl)cc1)N(C(=O)c1cnccn1)c1ccc2c(c1)OCO2 (stereo unspecified) ?
Result: inactive

Request: What did the test return for COc1ccc(OC)c(S(=O)(=O)NCCO)c1 ?
Result: inactive

Request: What did the test return for Cc1ccc(NC(=O)Cn2cccc2)cc1Cl ?
Result: inactive

Request: What did the test return for COc1ccc(C2=NOC(C(=O)NCc3ccc(F)cc3)C2)cc1OC (stereo unspecified) ?
Result: active

Request: What did the test return for COc1ccc(S(=O)(=O)NCc2ccc(C(=O)O)cc2)cc1 ?
Result: inactive

* * *

# method-summary: inhibitors of TNFa-induced NFkB p65 translocation, primary screen, imaging, HUVEC, MLSMR starter and 10KST1 sets (AID 438);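 further: compound added about 3h40 before a 20 min TNFalpha stimulation; signal is the nuclear over cytoplasmic p65 intensity ratio per well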
# condition-description: HUVEC TNFa-induced p65 nuclear translocation; at 2 µM, stronger effect = higher value, 0% TNFa-plus-vehicle, 100% no-TNFa wells
So I've got a bunch of compounds here, and I need their inhibition values.
Answers are plain numbers, in %.

INSERT INTO assay_data (compound, unit_abbrev, experimental_result) VALUES
  ('NC(=O)c1ccsc1NC(=O)COC(=O)Cc1ccsc1', '%', -18.9);

I need inhibition for every entry listed below, if you could help.
1. O=C(Nc1ccccc1)N(Cc1cccnc1)Cc1ccco1
2. CCCOc1ccc(/C(O)=C2/C(=O)C(=O)N(CCCOC)C2c2ccncc2)cc1 (centres undefined)
3. CCc1ccc(NC(=O)CS(=O)CC(=O)NC(C)CCc2ccco2)cc1 (centres undefined)
4. CC1CCCC(C)N1CCNC(=O)C1CCN(S(=O)(=O)N2CCCCC2)CC1 (centres undefined)
5. COCCOC(=O)c1cc(C(=O)c2cc(F)ccc2O)coc1=N
6. COCCn1nnnc1C(c1ccc(OC)cc1)N1CCN(c2ccccc2F)CC1 (centres undefined)

Result:
[-0.7, 5.8, 0.6, 4.2, -11.2, -1.9]

* * *

# method-summary: blockers of RIG-like receptor reporter activation – cell-based, Sendai virus stimulus, luciferase, 10K MLSCN set, TLR/RLR signaling modifier project, primary screen (AID 602276);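 further: firefly luciferase from ISG56 promoter only with Renilla not read in this screen; 0% = Sendai virus plus DMSO and 100% = medium plus DMSO without virus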
# condition-description: HEK293 RL24 IRF3 luciferase reporter, at 10 µM, stronger effect = higher value
measure-name: inhibition (%)
One number for each entry, in %.

I need inhibition for every entry listed below, if you could help.
1. c1ccc2c(-c3nc(-c4ccncc4)no3)cccc2c1
2. CCCCOC(=O)C1=C(C)Nc2ncnn2C1c1cccc(OC)c1OC (stereo not drawn)
3. CCCSc1nc2c(c(=O)[nH]c(=O)n2C)n1CCc1ccccc1

Result:
1. -14.2
2. 12.8
3. 17.9

I need inhibition for every entry listed below, if you could help.
1. COc1cc(S(=O)(=O)NC2CCCCC2C)ccc1Cl (stereo not drawn)
2. CS(=O)(=O)NCc1nnc(SCC(=O)NC2CCCCC2)n1-c1ccc(F)cc1
3. Cc1nc(SCC(=O)Nc2ccccc2C(F)(F)F)c2c(=O)n(C)c(=O)n(C)c2n1
4. COc1cccc(-n2nnnc2SCC(=O)NCc2ccco2)c1
5. COc1ccc(-n2nc(C(=O)NCC(=O)NCC3CCCO3)c3ccccc3c2=O)cc1 (stereo not drawn)
6. COc1ccc(OCCCC(=O)Nc2ccc3c(c2)OCCO3)cc1

Result:
1: -3.61; 2: 16.2; 3: 7.4; 4: 19.3; 5: 16.2; 6: -5.01

I need inhibition for every entry listed below, if you could help.
1. Cc1cc(N2C(=O)C(O)=C(C(=O)c3ccc(C)o3)C2c2cccs2)no1 (stereo not drawn)
2. C=CCNc1oc(-c2cccc3ccccc23)nc1C#N
3. CC(=O)Nc1nc(-c2ccccc2)nc(C)c1C(C)=O
4. COc1cc(Nc2cc(C)nc3ncnn23)cc(OC)c1OC
5. COc1cc(-c2nc(-c3ccncc3)no2)cc(OC)c1OC

Result:
-1.8
-4.72
-8.51
1.55
4.77

I need inhibition for every entry listed below, if you could help.
1. O=C(NCc1ccco1)c1cc2sccc2n1Cc1ccccc1
2. O=C1CC(c2ccc(S(=O)(=O)N3CCN(c4ccccc4)CC3)cc2)CN1 (stereo not drawn)

Result:
1. -19.7
2. 5.45

I need inhibition for every entry listed below, if you could help.
1. COc1cc(OC)c(C(=O)Nc2ncn[nH]2)cc1OC
2. CC(CCc1ccccc1)NC(=O)c1ccc(Br)o1 (stereo not drawn)
3. O=c1cc(C(F)F)oc2c1ccc1ccccc12
4. Cn1c(C(=O)NCCCN2CCN(c3ccc(F)cc3)CC2)cc2c(=O)n(C)c3ccccc3c21
5. C=CCn1c(Cc2csc(N)n2)nnc1SCC(=O)OCC

Result:
[17.7, 7.34, 9.69, 6.19, 4.87]

I need inhibition for every entry listed below, if you could help.
1. COc1ccc(C(=O)CN2C(=O)NC3(CCCc4ccccc43)C2=O)cc1OC (stereo not drawn)
2. CCC(=O)N1CCc2cc(S(=O)(=O)CCC(=O)Nc3c(C)n(C)n(-c4ccccc4)c3=O)ccc21

Result:
1. 15.1
2. 2.43
